# System: Staphylococcus aureus
# Assay summary: Induction of drug resistance in Staphylococcus aureus ATCC6538 assessed as change in MIC measured after 10 passages
# Format: functional
The source made the active and inactive calls. The calls are words filed in the database; no cut-off is given here.
Please answer using one outcome listed in active, inactive

Compound smiles: O=C(CCC(F)(F)F)N(Cc1cc2ccccc2s1)c1cc(-c2ccco2)ccc1O
Class name: inactive
--
Compound smiles: O=C(CCC(F)(F)F)N(Cc1cc2ccccc2s1)c1cc(-c2noc(C(F)(F)F)n2)ccc1O
Class name: inactive
--
Compound smiles: O=C(CCC(F)(F)F)N(Cc1cc2ccccc2s1)c1cc(-c2ccc(C(F)(F)F)cc2)ccc1O
Class name: inactive
--
Compound smiles: O=C(CCC(F)(F)F)N(Cc1cc2ccccc2s1)c1cc(-c2ccccc2)ccc1O
Class name: inactive
--
Compound smiles: O=C(CCC(F)(F)F)N(Cc1cc2ccccc2s1)c1cc(-c2cccc(C(F)(F)F)c2)ccc1O
Class name: inactive

## Task Dear colleague, could you share the recorded outcome for `O=C(CCC(F)(F)F)N(Cc1cc2ccccc2s1)c1cc(-c2ccc(Cl)cc2)ccc1O` when you have a moment?
## Result active

## Task Dear colleague, could you share the recorded outcome for `O=C(CCC(F)(F)F)N(Cc1cc2ccccc2s1)c1cc(-c2ccc(F)cc2)ccc1O` when you have a moment?
## Result inactive

---

# System: Staphylococcus aureus
# Assay summary: Antimicrobial activity against Staphylococcus aureus ATCC6538 assessed as reduction in bacterial growth incubated for 24 hrs by two-fold broth dilution method
# Type: functional
Please respond with reported MIC for every item in the list.
Give bare numbers, in µg/mL.

Here's what some known entries look like.
Compound smiles: O=C(CCC(F)(F)F)N(Cc1cc2ccccc2s1)c1cc(-c2noc(C(F)(F)F)n2)ccc1O
Measurement target: Staphylococcus aureus
Quantitative readout: 0.25
//
Compound smiles: CCCCC(=O)N(Cc1ccc2c(c1)CCO2)c1ccc2ccccc2c1O
Measurement target: Staphylococcus aureus
Quantitative readout: 62.5
//
Compound smiles: O=C(CCC(F)(F)F)N(Cc1cc2ccccc2s1)c1ccc2ccccc2c1O
Measurement target: Staphylococcus aureus
Quantitative readout: 2

// for each compound below, give its MIC
1. O=C(CCC(F)(F)F)N(Cc1cc2ccccc2s1)c1cc(-c2ccc(C(F)(F)F)cc2)ccc1O
2. O=C(CCC(F)(F)F)N(Cc1cc2ccccc2s1)c1cc(-c2ccc(F)cc2)ccc1O
3. CCCCC(=O)N(Cc1ccc2c(c1)OCO2)c1ccc2ccccc2c1O
4. O=C(CCC(F)(F)F)N(Cc1cc2ccccc2s1)c1ccc(-c2ccccc2)c(O)c1

## Result
0.5
1
31.2
2

// for each compound below, give its MIC
1. CCCCC(=O)N(Cc1cc(C(C)(C)C)cc(C(C)(C)C)c1)c1ccc2ccccc2c1O
2. COc1cccc(-c2ccc(O)c(N(Cc3cc4ccccc4s3)C(=O)CCC(F)(F)F)c2)c1
3. COc1cccc(OC)c1C(=O)N[C@@H]1C(=O)N2[C@@H]1SC(C)(C)[C@@H]2C(=O)O
4. CC(C)(C)c1ccc(-c2ccc(O)c(N(Cc3cc4ccccc4s3)C(=O)CCC(F)(F)F)c2)cc1
5. CCCCC(=O)N(Cc1ccc2oc3ccccc3c2c1)c1ccc2ccccc2c1O
6. CCCCC(=O)N(Cc1cc2ccccc2o1)c1ccc2ccccc2c1O
7. O=C(CCCCl)N(Cc1cc2ccccc2s1)c1ccc2ccccc2c1O

## Result
[62.5, 1, 1, 2, 62.5, 31.2, 7.8]

// for each compound below, give its MIC
1. COc1ccccc1-c1ccc(O)c(N(Cc2cc3ccccc3s2)C(=O)CCC(F)(F)F)c1
2. O=C(CCC(F)(F)F)N(Cc1cc2ccccc2s1)c1cc(-c2ccc(Cl)cc2)ccc1O
3. O=C(CCC(F)(F)F)N(Cc1cc2ccccc2s1)c1cc(-c2ccc(Br)cc2)ccc1O
4. O=C(CCC(F)(F)F)N(Cc1cc2ccccc2s1)c1cc(-c2cccc(C(F)(F)F)c2)ccc1O
5. CCCCC(=O)N(Cc1ccc2c(c1)OCCO2)c1ccc2ccccc2c1O
6. CCCCC(=O)N(Cc1ccc2sccc2c1)c1ccc2ccccc2c1O

## Result
[1, 1, 2, 1, 31.2, 31.2]

// for each compound below, give its MIC
1. C=CC(=O)N(Cc1cc2ccccc2s1)c1ccc2ccccc2c1O
2. COc1ccc(-c2ccc(O)c(N(Cc3cc4ccccc4s3)C(=O)CCC(F)(F)F)c2)cc1

## Result
1: 7.8; 2: 1

---

Please respond with reported selectivity ratio for every item in the list.
# Assay summary: Selectivity index, ratio of IC50 for African green monkey Vero E6 cells to MIC for Staphylococcus aureus ATCC6538
# Format: toxicity
# Measurement parameters: read-out: Selectivity Index
Give bare numbers.

Here's what some known entries look like.
Compound smiles: O=C(CCC(F)(F)F)N(Cc1cc2ccccc2s1)c1cc(-c2ccc(C(F)(F)F)cc2)ccc1O
selectivity ratio: 11
//
Compound smiles: O=C(CCC(F)(F)F)N(Cc1cc2ccccc2s1)c1cc(-c2ccccc2)ccc1O
selectivity ratio: 22
//
Compound smiles: O=C(CCC(F)(F)F)N(Cc1cc2ccccc2s1)c1cc(-c2cccc(C(F)(F)F)c2)ccc1O
selectivity ratio: 20
//
Compound smiles: O=C(CCC(F)(F)F)N(Cc1cc2ccccc2s1)c1cc(-c2ccc(Cl)cc2)ccc1O
selectivity ratio: 21

Shift focus to the following entry.
The reported value for `O=C(CCC(F)(F)F)N(Cc1cc2ccccc2s1)c1cc(-c2ccc(F)cc2)ccc1O` in terms of selectivity ratio is 18

---

# Assay summary: Cytotoxicity against HEK293 cells assessed as reduction in cell viability measured after 24 hrs by CCK-8 method
# Type: toxicity, cell-based
# Measurement parameters: human
Please respond with reported IC50 at 24 h for every item in the list.
Give bare numbers, in µg/mL.

// for each compound below, give its IC50 at 24 h
1. O=C(CCC(F)(F)F)N(Cc1cc2ccccc2s1)c1cc(-c2cccc(C(F)(F)F)c2)ccc1O
2. O=C(CCC(F)(F)F)N(Cc1cc2ccccc2s1)c1cc(-c2ccccc2)ccc1O
3. O=C(CCC(F)(F)F)N(Cc1cc2ccccc2s1)c1cc(-c2noc(C(F)(F)F)n2)ccc1O
4. O=C(CCC(F)(F)F)N(Cc1cc2ccccc2s1)c1cc(-c2ccco2)ccc1O
5. O=C(CCC(F)(F)F)N(Cc1cc2ccccc2s1)c1cc(-c2ccc(F)cc2)ccc1O
6. O=C(CCC(F)(F)F)N(Cc1cc2ccccc2s1)c1cc(-c2ccc(C(F)(F)F)cc2)ccc1O

## Result
1: 12.2; 2: 7.8; 3: 16.9; 4: 15.4; 5: 20.7; 6: 2.79

---

# Test system: Staphylococcus aureus
# Assay summary: Antimicrobial activity against methicillin resistant Staphylococcus aureus clinical isolate MRS152 assessed as reduction in bacterial growth incubated for 24 hrs by two-fold broth dilution method
# Assay type: functional
Please respond with reported MIC for every item in the list.
Give bare numbers, in µg/mL.

// for each compound below, give its MIC
1. O=C(CCC(F)(F)F)N(Cc1cc2ccccc2s1)c1cc(-c2ccc(C(F)(F)F)cc2)ccc1O
2. O=C(CCC(F)(F)F)N(Cc1cc2ccccc2s1)c1cc(-c2noc(C(F)(F)F)n2)ccc1O

## Result
1. 6
2. 1

---

# Test system: Staphylococcus aureus
# Assay summary: Antimicrobial activity against methicillin resistant Staphylococcus aureus clinical isolate MRS23 assessed as reduction in bacterial growth incubated for 24 hrs by two-fold broth dilution method
# Assay type: functional
Quantity name: MIC (µg/mL)
Answers are plain numbers, in µg/mL.

Compound smiles: O=C(CCC(F)(F)F)N(Cc1cc2ccccc2s1)c1cc(-c2ccc(C(F)(F)F)cc2)ccc1O
MIC (µg/mL): 16

Compound smiles: COc1cccc(OC)c1C(=O)N[C@@H]1C(=O)N2[C@@H]1SC(C)(C)[C@@H]2C(=O)O
MIC (µg/mL): 8

Compound smiles: O=C(CCC(F)(F)F)N(Cc1cc2ccccc2s1)c1cc(-c2ccc(Cl)cc2)ccc1O
MIC (µg/mL): 16

// for each compound below, give its MIC
1. O=C(CCC(F)(F)F)N(Cc1cc2ccccc2s1)c1cc(-c2cccc(C(F)(F)F)c2)ccc1O
2. O=C(CCC(F)(F)F)N(Cc1cc2ccccc2s1)c1cc(-c2ccccc2)ccc1O
3. O=C(CCC(F)(F)F)N(Cc1cc2ccccc2s1)c1cc(-c2ccc(F)cc2)ccc1O
4. COc1ccccc1-c1ccc(O)c(N(Cc2cc3ccccc3s2)C(=O)CCC(F)(F)F)c1
5. O=C(CCC(F)(F)F)N(Cc1cc2ccccc2s1)c1cc(-c2noc(C(F)(F)F)n2)ccc1O

## Result
6
3
2
16
2

// for each compound below, give its MIC
1. O=C(CCC(F)(F)F)N(Cc1cc2ccccc2s1)c1cc(-c2ccco2)ccc1O
2. COc1cccc(-c2ccc(O)c(N(Cc3cc4ccccc4s3)C(=O)CCC(F)(F)F)c2)c1

## Result
1. 2
2. 6

---

Please respond with reported MIC for every item in the list.
# System: Staphylococcus aureus
# Assay summary: Antimicrobial activity against methicillin resistant Staphylococcus aureus clinical isolate MRS273 assessed as reduction in bacterial growth incubated for 24 hrs by two-fold broth dilution method
# Format: functional
Answers are plain numbers, in µg/mL.

Compound: O=C(CCC(F)(F)F)N(Cc1cc2ccccc2s1)c1cc(-c2cccc(C(F)(F)F)c2)ccc1O
Quantity name: MIC
Endpoint unit: µg/mL
Quantitative readout: 3

// for each compound below, give its MIC
1. COc1cccc(OC)c1C(=O)N[C@@H]1C(=O)N2[C@@H]1SC(C)(C)[C@@H]2C(=O)O [METHICILLIN]
2. COc1ccc(-c2ccc(O)c(N(Cc3cc4ccccc4s3)C(=O)CCC(F)(F)F)c2)cc1
3. O=C(CCC(F)(F)F)N(Cc1cc2ccccc2s1)c1cc(-c2noc(C(F)(F)F)n2)ccc1O
4. O=C(CCC(F)(F)F)N(Cc1cc2ccccc2s1)c1cc(-c2ccc(C(F)(F)F)cc2)ccc1O
5. O=C(CCC(F)(F)F)N(Cc1cc2ccccc2s1)c1cc(-c2ccc(F)cc2)ccc1O

## Result
16
16
1
6
2

// for each compound below, give its MIC
1. O=C(CCC(F)(F)F)N(Cc1cc2ccccc2s1)c1cc(-c2ccc(Cl)cc2)ccc1O
2. COc1cccc(-c2ccc(O)c(N(Cc3cc4ccccc4s3)C(=O)CCC(F)(F)F)c2)c1
3. O=C(CCC(F)(F)F)N(Cc1cc2ccccc2s1)c1cc(-c2ccco2)ccc1O
4. COc1ccccc1-c1ccc(O)c(N(Cc2cc3ccccc3s2)C(=O)CCC(F)(F)F)c1
5. O=C(CCC(F)(F)F)N(Cc1cc2ccccc2s1)c1cc(-c2ccccc2)ccc1O

## Result
[16, 16, 3, 3, 3]
